Experiment: dye displacement from CAG DNA duplex – biochemical, fluorescence, TO-PRO-1 dye, counter-screen for rCAG RNA repeat binder project, dose response (AID 686960)
Details: DNA CAG/GTC duplex TO-PRO-1 dye displacement fluorescence
The other results are listed elsewhere or left out. Calls of active or inactive are those of the source. Cut-off read from the data, not from the text of the source: active = IC50 below about 10 µM; inactive = the rest.
property measured: IC50

In [3]: df
Out[3]:
                                   compound        recorded_value
0  CC(C)(C)C1C/C(=C/c2ccco2)C(=O)/C(=C/c2ccco2)C1 (configuration not stated)  > 29.9 µM (inactive)
1  COc1ccc(C(=O)Nc2cccc(/C=C(/CCC(=O)O)c3nc4ccccc4s3)c2)cc1    14.2 µM (inactive)
2  COc1ccc(Cc2nnc(SCC(=O)Nc3ccc(C)c(Cl)c3)[nH]c2=O)cc1    24.2 µM (inactive)
3  O=C(O)c1ccc(NN=CC2=C(N3CCOCC3)/C(=C/c3ccccc3)CC2)cc1      11 µM (inactive)
4  O=C(Cc1ccccc1)Nc1ccc(C(=O)Nc2ccccc2C(=O)O)cc1  > 29.9 µM (inactive)
5  Cc1ccc(C(C)C)c(OCCSc2nc3ccccc3n2CC(=O)O)c1  > 29.9 µM (inactive)
6  Cc1noc(NS(=O)(=O)c2ccc(NC(=O)c3oc4ccc(F)cc4c3C)cc2)c1C    16.5 µM (inactive)
